molecular target: UniProt P40261; experiment: NNMT assay (HILIC-MS/MS, formation of MNA); conditions: read-out: IC50 values; Table 6, amino acid replacement; NA 200 μM, SAM 8.5 μM; maximum concentration tested 25 μM
pIC50: −log10 of the molar value.
recorded-endpoint: pIC50

structure | value-measured
C=CC(=O)CCCN(C/C=C/c1ccc(C#N)cc1)C[C@H]1O[C@@H](n2cnc3c(N)ncnc32)[C@H](O)[C@@H]1O | 6.27

###

Here the recorded % of DMSO control at 100 μM, T24, 24 h is given for each entry.
system: T24 human bladder cancer cell line; assay: MTT cell proliferation assay, T24; format: cell-based; conditions: 24 h incubation

compound | % of DMSO control at 100 μM, T24, 24 h
N#Cc1ccc(/C=C/CN(CC[C@H](N)C(=O)O)C[C@H]2O[C@@H](n3cnc4c(N)ncnc43)[C@H](O)[C@@H]2O)cc1 [GYZ-319] | 100 % of DMSO control
COC(=O)[C@@H](N)CCN(C/C=C/c1ccc(C#N)cc1)C[C@H]1O[C@@H](n2cnc3c(N)ncnc32)[C@H](O)[C@@H]1O [GYZ-494] | 100 % of DMSO control
CCOC(=O)[C@H](CCN(C/C=C/c1ccc(C#N)cc1)C[C@H]1O[C@@H](n2cnc3c(N)ncnc32)[C@H](O)[C@@H]1O)NC(=O)CC(C)(C)c1c(C)cc(C)cc1OC(C)=O [NB60] | 100 % of DMSO control
CCOC(=O)[C@@H](N)CCN(C/C=C/c1ccc(C#N)cc1)C[C@H]1O[C@@H](n2cnc3c(N)ncnc32)[C@H](O)[C@@H]1O [GYZ-552] | 100 % of DMSO control

###

biological target: UniProt P40261; test: NNMT assay (HILIC-MS/MS, formation of MNA); conditions: IC50 values (μM), Table 5, 3-carbon alkyl linkers; NA 200 μM, SAM 8.5 μM

structure | IC50 / µM
Nc1ncnc2c1ncn2[C@@H]1O[C@H](CN(CCCc2ccc([N+](=O)[O-])cc2)CC[C@H](N)C(=O)O)[C@@H](O)[C@H]1O | 0.29

###

biological target: NNMT (Homo sapiens); assay: NNMT assay (HILIC-MS/MS, formation of MNA); conditions: IC50 values (nM), Table 1, alkene linked aromatics; NA 200 μM, SAM 8.5 μM; maximum concentration tested 25 μM
recorded-endpoint: IC50 (nM)

structure | value-measured
Nc1ncnc2c1ncn2[C@@H]1O[C@H](CN(C/C=C/c2c(F)c(F)c(F)c(F)c2F)CC[C@H](N)C(=O)O)[C@@H](O)[C@H]1O | 400
Nc1ncnc2c1ncn2[C@@H]1O[C@H](CN(C/C=C/c2cc(F)c(F)c(F)c2)CC[C@H](N)C(=O)O)[C@@H](O)[C@H]1O | 363
N#Cc1c(F)c(F)c(/C=C/CN(CC[C@H](N)C(=O)O)C[C@H]2O[C@@H](n3cnc4c(N)ncnc43)[C@H](O)[C@@H]2O)c(F)c1F | 7.14
Nc1ncnc2c1ncn2[C@@H]1O[C@H](CN(C/C=C/c2c(F)c(F)cc(F)c2F)CC[C@H](N)C(=O)O)[C@@H](O)[C@H]1O | 1810

###

biological target: NNMT (Homo sapiens, UniProt P40261); experiment: NNMT assay (HILIC-MS/MS, formation of MNA); conditions: IC50 values (nM), Table 6, amino acid replacement; NA 200 μM, SAM 8.5 μM; maximum concentration tested 25 μM
Sequence (P40261 whole entry, species assumed): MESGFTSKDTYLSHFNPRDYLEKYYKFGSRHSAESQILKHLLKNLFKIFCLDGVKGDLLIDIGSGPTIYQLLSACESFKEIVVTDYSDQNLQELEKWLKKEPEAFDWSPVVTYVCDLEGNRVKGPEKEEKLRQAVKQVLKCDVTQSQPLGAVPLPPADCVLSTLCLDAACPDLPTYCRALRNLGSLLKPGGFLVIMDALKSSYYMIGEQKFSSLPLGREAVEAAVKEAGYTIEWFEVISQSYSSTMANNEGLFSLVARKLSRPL

structure | IC50
CCCCCN(C/C=C/c1ccc(C#N)cc1)C[C@H]1O[C@@H](n2cnc3c(N)ncnc32)[C@H](O)[C@@H]1O | > 25000 nM
N#Cc1ccc(/C=C/CN(C/C=C/c2ccc(C#N)cc2)C[C@H]2O[C@@H](n3cnc4c(N)ncnc43)[C@H](O)[C@@H]2O)cc1 | > 25000 nM
N#Cc1ccc(/C=C/CN(CCS(=O)(=O)F)C[C@H]2O[C@@H](n3cnc4c(N)ncnc43)[C@H](O)[C@@H]2O)cc1 | > 25000 nM
